test: NCI Yeast Anticancer Drug Screen. Data for the sgs1 mgt1 strain (AID 161);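 further: 0% = growth of cultures given vehicle only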; conditions: S. cerevisiae sgs1 mgt1 strain, at 5.0 µM (retest, dose inferred, filed as 0.5), active compounds read high
This is part of a sample that, as a whole, favours compounds with a hit. Of some 79,000 tested, about 15% had one in any assay.
READOUT_NAME: growth inhibition (%)
A number alone suffices; assume %.

Solved entries:
Input line: Could you please provide reported growth inhibition for O=C(O)c1c2c(cc3c1CC1(Cc4cc5c(cc4C1=O)CCC5)C3)CCC2 (configuration not stated) ? Thanks!
Output line: 57

Input line: Could you please provide reported growth inhibition for CCc1nc(N)nc(N)c1-c1ccc(NCCN)c([N+](=O)[O-])c1 ? Thanks!
Output line: -28

Input line: Could you please provide reported growth inhibition for Clc1ccc2[nH]c(-c3ccccc3)c(-c3ccccn3)c2c1 ? Thanks!
Output line: 93

***
Input line: Could you please provide reported growth inhibition for O=C(N/C(=C\c1ccccc1Cl)c1nc2ccccc2s1)c1ccccc1 ? Thanks!
Output line: 54

Input line: Could you please provide reported growth inhibition for CN(C(=S)c1ccccc1)c1ccccc1 ? Thanks!
Output line: -63

Input line: Could you please provide reported growth inhibition for CCCCCCCCCCCCCCCCNc1ccn(C2CC(OP(=O)(O)OCC3OC(n4cc(CC)c(=O)[nH]c4=O)CC3O)C(CO)O2)c(=O)n1 (configuration not stated) ? Thanks!
Output line: 94
